Tested on: ATP;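 also: ATP exposure 15 min at 22 °C before imaging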
procedure_text: switch fluorescence ratio, 500 uM ATP over buffer (Cy3 cluster intensity, sum of 5 cycles each) (fold (ratio)); higher = stronger signal-on switching upon ATP binding; sequences stand for … in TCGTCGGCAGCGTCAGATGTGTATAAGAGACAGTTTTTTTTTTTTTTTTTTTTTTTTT…TC
measurement_parameters: aptamer strand: ATP DNA aptamer (quencher-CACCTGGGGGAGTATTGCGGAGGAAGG + anchor), 100 nM annealed; ATP concentration: 500 uM
Each record here notes measured switch fluorescence ratio.
assay_readout: switch fluorescence ratio

- construct_sequence: "TATGCGGCTT"
  assay_readout: "switch fluorescence ratio"
  test_value: 0.988
- construct_sequence: "CAATGAGAGA"
  assay_readout: "switch fluorescence ratio"
  test_value: 0.979
- construct_sequence: "AAGTACGACT"
  assay_readout: "switch fluorescence ratio"
  test_value: 1.1
- construct_sequence: "ATTACGGGGT"
  assay_readout: "switch fluorescence ratio"
  test_value: 1.01
- construct_sequence: "TTCAGGAGAC"
  assay_readout: "switch fluorescence ratio"
  test_value: 1.01
- construct_sequence: "TATTTGAATG"
  assay_readout: "switch fluorescence ratio"
  test_value: 1.01
- construct_sequence: "CAGGGGAGGT"
  assay_readout: "switch fluorescence ratio"
  test_value: 1.02
- construct_sequence: "TACGGGGGAC"
  assay_readout: "switch fluorescence ratio"
  test_value: 1.07
- construct_sequence: "TGCCGACGTA"
  assay_readout: "switch fluorescence ratio"
  test_value: 1.03
- construct_sequence: "CTGAGGTGGT"
  assay_readout: "switch fluorescence ratio"
  test_value: 0.991
- construct_sequence: "TAAATTAAGT"
  assay_readout: "switch fluorescence ratio"
  test_value: 1.03
- construct_sequence: "TATGAGGGCT"
  assay_readout: "switch fluorescence ratio"
  test_value: 1.04
- construct_sequence: "GGTGCAGGGG"
  assay_readout: "switch fluorescence ratio"
  test_value: 1.11
- construct_sequence: "GCTTTTATCA"
  assay_readout: "switch fluorescence ratio"
  test_value: 0.978
- construct_sequence: "ATGGGGGTAC"
  assay_readout: "switch fluorescence ratio"
  test_value: 0.998
- construct_sequence: "CCTCGGGGGT"
  assay_readout: "switch fluorescence ratio"
  test_value: 1.02
- construct_sequence: "TGACGTTCGG"
  assay_readout: "switch fluorescence ratio"
  test_value: 0.978
- construct_sequence: "ATTGTTAATG"
  assay_readout: "switch fluorescence ratio"
  test_value: 0.98
- construct_sequence: "GATTAACGTT"
  assay_readout: "switch fluorescence ratio"
  test_value: 0.971

----------
Tested on: ATP;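 also: ATP exposure 15 min at 22 °C before imaging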
procedure_text: switch fluorescence ratio, 500 uM ATP over buffer (Cy3 cluster intensity, sum of 5 cycles each) (fold (ratio)); higher = stronger signal-on switching upon ATP binding; sequences stand for … in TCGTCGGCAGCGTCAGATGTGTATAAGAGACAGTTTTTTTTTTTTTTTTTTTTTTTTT…TC
measurement_parameters: aptamer strand: ATP DNA aptamer (quencher-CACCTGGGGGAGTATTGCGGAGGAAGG + anchor), 100 nM annealed; ATP concentration: 500 uM
Each record here notes measured switch fluorescence ratio.
assay_readout: switch fluorescence ratio

- construct_sequence: "GTTTAACTAT"
  assay_readout: "switch fluorescence ratio"
  test_value: 1.02
- construct_sequence: "CGGTCGAGGT"
  assay_readout: "switch fluorescence ratio"
  test_value: 0.993
- construct_sequence: "AATAGGATAG"
  assay_readout: "switch fluorescence ratio"
  test_value: 1.02
- construct_sequence: "ACTAAAAGGC"
  assay_readout: "switch fluorescence ratio"
  test_value: 1.01
- construct_sequence: "TTTCTAATGG"
  assay_readout: "switch fluorescence ratio"
  test_value: 1.02
- construct_sequence: "AAGTAGTCGT"
  assay_readout: "switch fluorescence ratio"
  test_value: 1.01
- construct_sequence: "TTAAGATGTA"
  assay_readout: "switch fluorescence ratio"
  test_value: 1.01
- construct_sequence: "TTTTCTATGG"
  assay_readout: "switch fluorescence ratio"
  test_value: 1
- construct_sequence: "CAGAAGCCTG"
  assay_readout: "switch fluorescence ratio"
  test_value: 1.01
- construct_sequence: "CGGTAGTGCG"
  assay_readout: "switch fluorescence ratio"
  test_value: 0.975
- construct_sequence: "GCTTTTGGTG"
  assay_readout: "switch fluorescence ratio"
  test_value: 1.02
- construct_sequence: "AAAGTGATTA"
  assay_readout: "switch fluorescence ratio"
  test_value: 1.01
- construct_sequence: "GATTGCAGGA"
  assay_readout: "switch fluorescence ratio"
  test_value: 0.999
- construct_sequence: "AAGGTATTGA"
  assay_readout: "switch fluorescence ratio"
  test_value: 0.978
- construct_sequence: "TACCATGGTA"
  assay_readout: "switch fluorescence ratio"
  test_value: 0.987
- construct_sequence: "TTGGGGGCAT"
  assay_readout: "switch fluorescence ratio"
  test_value: 1.02
